Target: T1, recombinant human midkine (huMK) (human, UniProt P21741 21-143)
T1 construct: also called human MK; Human MK
T1 sequence (looked up): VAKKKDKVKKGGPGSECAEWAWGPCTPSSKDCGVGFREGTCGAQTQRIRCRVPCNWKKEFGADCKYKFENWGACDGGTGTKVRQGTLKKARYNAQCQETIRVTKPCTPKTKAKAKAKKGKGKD
Experiment: ELISA, plate coated with huMK
Provide the recorded pEC50 for the entries that follow.
Answers are plain numbers, as −log10 of the molar value.

Answered cases to consult:
binder	pEC50
IP14-H1L8 (antibody, V domains shown, also called hIP14-H1L8; Hv1 Lv8) VH: QVQLVQSGAEVKKPGHSVKVSCKASGQSFSSYWMNWVRQAPGQGLEWIGMIHPSDSETILNQKFKDKATLTVDISTSTAYMELSSPRSEDTAVYYCSSWSAKRGDFWGQGTLVTVSS VL: DIVLTQSPATLSLSPGERATLSCRASESISNNLHWYQQKPHQAPRLLIYYASQSISGVPARFSGSGSGTDFTLTISSVEPEDFAVYYCQQSNSWPLTFGQGTKVEIKR	10.30
IP14 Hv0 Lv1 (antibody, V domains shown) VH: QVQLQQPGAELVRPGHSVKLSCKASGQSFSSYWMNWVRQRPGQGLEWIGMIHPSDSETILNQKFKDKATLTVDISSNTAYMQLSSPTSEDSAVYFCSSWSAKRGDFWGQGTTLTVSS VL: EIVLTQSPATLSLSPGERANLSCRASESISNNLHWYQQKPHQAPRLLIKYASQSISGIPARFSGSGPGTDFNLTISSVEPEDFAVYYCQQSNSWPLTFGGGTKLEIKR	10.03
IP14-H5L7 (antibody, V domains shown, also called Hv5 Lv7) VH: QVQLVQSGGGLVQPGGSLRLSCAASGQSFSSYWMNWVRQAPGQGLEWIGMIHPSDSETILNQKFKDKATLTVDISKNTAYLQMNSLRAEDTAVYYCSSWSAKRGDFWGQGTLVTVSS VL: DIVLTQSPATLSLSPGERANLSCRASESISNNLHWYQQKPHQAPRLLIYYASQSISGVPARFSGSGSGTDFNLTISSVEPEDFAVYYCQQSNSWPLTFGQGTKVEIKR	10.17
IP14-H5L8 (antibody, V domains shown, also called hIP14-H5L8; Hv5 Lv8) VH: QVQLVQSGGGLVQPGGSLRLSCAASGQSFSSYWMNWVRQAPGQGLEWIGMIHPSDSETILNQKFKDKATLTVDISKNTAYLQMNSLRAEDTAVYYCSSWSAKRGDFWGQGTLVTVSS VL: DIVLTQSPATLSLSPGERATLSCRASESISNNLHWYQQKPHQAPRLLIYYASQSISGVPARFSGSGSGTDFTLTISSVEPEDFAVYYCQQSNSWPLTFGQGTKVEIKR	10.22
IP14-H6L8 (antibody, V domains shown, also called hIP14-H6L8; Hv6 Lv8) VH: QVQLVQSGGGLVKPGHSLRLSCAASGQSFSSYWMNWVRQAPGKGLEWIGMIHPSDSETILNQKFKDKATLSVDIAKNSAYLQMNSLRAEDTAVYYCSSWSAKRGDFWGQGTLVTVSS VL: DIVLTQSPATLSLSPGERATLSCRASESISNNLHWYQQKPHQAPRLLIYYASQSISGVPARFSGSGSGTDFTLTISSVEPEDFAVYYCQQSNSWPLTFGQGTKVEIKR	10.38

Request: Need pEC50 of IP14-H1L1 (antibody, V domains shown, also called Hv1 Lv1) VH: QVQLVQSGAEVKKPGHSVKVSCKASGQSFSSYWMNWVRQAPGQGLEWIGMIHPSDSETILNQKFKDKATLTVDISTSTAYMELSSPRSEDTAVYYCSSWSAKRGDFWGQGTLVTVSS VL: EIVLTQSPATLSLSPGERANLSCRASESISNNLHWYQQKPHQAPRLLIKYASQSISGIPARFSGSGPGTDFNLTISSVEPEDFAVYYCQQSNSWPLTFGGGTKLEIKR , thanks.
Response: 10.25
